FYI, the data here is from patent US8476266B2.

Target: Human CYP3A4 (Homo sapiens, UniProt P08684)
Sequence (P08684 whole entry): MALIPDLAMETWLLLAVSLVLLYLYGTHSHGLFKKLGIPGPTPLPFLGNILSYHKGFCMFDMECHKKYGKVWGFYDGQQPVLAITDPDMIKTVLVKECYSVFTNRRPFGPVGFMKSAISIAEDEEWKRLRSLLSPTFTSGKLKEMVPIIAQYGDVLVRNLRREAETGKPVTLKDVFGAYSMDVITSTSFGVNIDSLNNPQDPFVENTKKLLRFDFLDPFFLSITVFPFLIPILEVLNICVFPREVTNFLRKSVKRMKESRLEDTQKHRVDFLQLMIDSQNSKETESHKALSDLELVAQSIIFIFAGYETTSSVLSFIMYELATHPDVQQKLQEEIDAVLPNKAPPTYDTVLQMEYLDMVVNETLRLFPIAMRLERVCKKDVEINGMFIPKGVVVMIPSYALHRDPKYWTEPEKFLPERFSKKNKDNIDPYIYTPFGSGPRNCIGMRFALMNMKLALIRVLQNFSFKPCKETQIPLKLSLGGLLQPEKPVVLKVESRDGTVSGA
pIC50: −log10 of the molar value.
Reported pIC50 by item:

Look over these answered cases.
1) Cc1cc(OC[C@@H]2CN(C)c3ccccc3O2)cc(C)c1C(=O)Nc1cc(C2(C(=O)O)CC2)ccc1Cl: ≤ 4.52
2) Cc1cc(OC[C@@H]2CN(C)c3ccccc3O2)cc(C)c1C(=O)Nc1cc(CC(=O)O)ccc1C(F)(F)F: 5.08

Short answer please: pIC50, Human CYP3A4 (Homo sapiens, UniProt P08684), entry Cc1cc(OC[C@@H]2CN(C)c3ccccc3O2)cc(C)c1C(=O)Nc1cccc(CC(=O)O)c1
≤ 4.52

---

This document collects IC50 values reported for UniProt P08684.

Use the examples below as a reference point.
1. Cc1cc(OC[C@@H]2CN(C)c3ccccc3O2)cc(C)c1C(=O)Nc1cc(CC(=O)O)ccc1Cl [Comparative compound 3]: 19.7 µM
2. Cc1ccc(CC(=O)O)cc1NC(=O)c1c(C)cc(OC[C@@H]2CN(C)c3ccccc3O2)cc1C [Comparative compound 2]: < 3 µM

Now take the following molecule into account.
# returns recorded IC50 (system: UniProt P08684) for CCc1cc(OC[C@@H]2CN(C)c3ccccc3O2)cc(C)c1C(=O)Nc1cc(C2(C(=O)O)CC2)ccc1C(F)(F)F [Example 21]
≥ 30 µM
